# ASSAY REMARKS: folding stability dG unfold (combined trypsin and chymotrypsin); higher = more stable
Tick Yes if folding stability dG unfold is 4 kJ/mol or greater. Tick No if folding stability dG unfold is less than 4 kJ/mol.

>>> qualitative_label("SAGMMRVEVFGDGELLEVTELDGDTVEVPVPPERHRVRVFAPGDDRAAEAEVDPAKGVVVLKVPADARISAG [r5_469_TrMRF]")
"No"
>>> qualitative_label("SMTPEVSVITLRPVEVKKVGEVPVVTLEVTEVENAPEELLEKVKAGAKLTIEVPKDEPIEPDEEIEVVLPSA [r9_557_JUSTAS]")
"No"
>>> qualitative_label("SAGGSAGGSAGPLRPRLYRVRFTNPDGSRREFLVPEGATLEEILKRFNIPESGRVELEPVSAGGSAGGSAGG [r11_340_TrMRF]")
"Yes"
>>> qualitative_label("SALKIEISFPGNAGEVRERVLGREDGSYEVEFLVTFPTPGDGIPSVLRVTYRVDPVSGKIEPRLEPVDASAG [r14_590_TrMRF]")
"Yes"
>>> qualitative_label("SAGGSAGGSGMVTVKRTVPPGNVEEAVNALTPPNLTITDVKVTELPDSVEVTVTVEDPFPGLVSAGGSAGGS [r12_445_JUSTAS]")
"No"

[ask] Threshold query (folding stability dG unfold >= 4 kJ/mol) on SAGGMVRITRDEDGILRVELFVEGTPEEAEEEAARLVRLLEELGFEEVRVEREPFGDGVVVTIEAKASAGGS [r8_113_TrMRF]
[reply] Yes

Data origin: the supplement of paper PMC12764529
